# Assay target: human Y4 receptor (human, UniProt P50391 1-375)
# Sequence (P50391 whole entry): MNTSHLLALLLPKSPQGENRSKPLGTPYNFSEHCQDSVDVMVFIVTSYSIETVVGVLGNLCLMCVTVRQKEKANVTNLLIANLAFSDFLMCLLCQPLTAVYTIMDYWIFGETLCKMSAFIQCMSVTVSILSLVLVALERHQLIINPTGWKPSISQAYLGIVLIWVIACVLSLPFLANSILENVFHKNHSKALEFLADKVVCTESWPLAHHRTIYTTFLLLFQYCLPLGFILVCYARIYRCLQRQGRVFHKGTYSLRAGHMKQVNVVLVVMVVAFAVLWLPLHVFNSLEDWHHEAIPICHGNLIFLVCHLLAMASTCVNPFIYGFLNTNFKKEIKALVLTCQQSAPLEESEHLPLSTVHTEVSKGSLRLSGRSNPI
# Protocol details: 125I-PP displacement
Readout type: pIC50
Field pIC50 (float): negative decimal logarithm of the concentration in molar.

Binder: CAPLEPVYPGDNATPEQMAQYAADLRRYINCLTRPRY [7117]
pIC50: 9.45

Prompt line: Consider the binder PAPLEPVYPGDNATPEELVKYYASLRHYINMLTRPRY [7108] . State its measured pIC50.
Response line: 9.60
